System: HEK-293T
Experiment: Multiplex assay against HEK293T
Assay type: toxicity, cell-based
Settings: human, 48 h, 10 µM, compound concentration 10 uM, replicate 2
RECORDED METRIC: Population Hoechst High Intensity Objects (%)
One number for each entry, in %.

Example cases with answers are listed next.
Cl.O=C(c1ccc(Nc2nccc(-c3cc4ccccc4s3)n2)cc1)N1CCC(N2CCCC2)CC1	17
Cc1ccc(C(=O)Nc2cccc(C(F)(F)F)c2)cc1Nc1nc(-c2cccnc2)nc2c1cnn2C	7
CCOC(=O)c1c(C)[nH]c2ccc3c(c12)CN1CCc2cc(OC)ccc2C1O3 (stereo not drawn)	14
CN(C)C(=O)C(CCN1CCC(O)(c2ccc(Cl)cc2)CC1)(c1ccccc1)c1ccccc1.Cl [LOPERAMIDE HYDROCHLORIDE]	19
CCn1c(=O)c(-c2ccc(-c3cncs3)cc2Cl)cc2cnc(Nc3ccc(N4CCN(C)CC4)cc3)nc21	4

Answer for every listed entry: what is its Population Hoechst High Intensity Objects (%)? The entries follow.
1. CCN1CCN(Cc2ccc(Nc3ncc(F)c(-c4cc(F)c5nc(C)n(C(C)C)c5c4)n3)nc2)CC1.CS(=O)(=O)O
2. O=C(Cc1ccc(-c2ccc(OCCN3CCOCC3)cc2)cn1)NCc1ccccc1 [TIRBANIBULIN]
3. Cl.Oc1ccc2c3c1O[C@H]1c4[nH]c5c(c4C[C@@]4(O)[C@@H](C2)N(CC2CC2)CC[C@]314)C[C@@]1(O)[C@H]2Cc3ccc(O)c4c3[C@@]1(CCN2CC1CC1)[C@H]5O4

Response:
28
4
2

Recorded values, source ChEMBL document CHEMBL4689842.
